molecular target: hPXR (Homo sapiens (Human)); assay: hPXR binding assay; conditions: read-out: Binding (IC50/μM); hPXR binding assay
Sequence (O75469 whole entry): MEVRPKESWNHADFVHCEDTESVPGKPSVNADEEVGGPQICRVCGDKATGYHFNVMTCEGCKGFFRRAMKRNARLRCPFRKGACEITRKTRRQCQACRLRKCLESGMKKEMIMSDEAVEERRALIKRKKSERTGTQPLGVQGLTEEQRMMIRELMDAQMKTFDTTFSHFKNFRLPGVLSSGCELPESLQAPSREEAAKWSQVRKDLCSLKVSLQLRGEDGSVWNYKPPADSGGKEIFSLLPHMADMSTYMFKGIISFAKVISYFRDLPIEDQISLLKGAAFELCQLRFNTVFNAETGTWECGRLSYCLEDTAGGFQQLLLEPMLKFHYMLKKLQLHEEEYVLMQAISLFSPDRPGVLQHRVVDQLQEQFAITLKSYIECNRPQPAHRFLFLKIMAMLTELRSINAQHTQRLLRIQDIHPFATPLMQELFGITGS
Measured property: IC50 (µM)

CCCCOc1ccc(C(C)(C)C)cc1NC(=O)c1nnn(-c2ccccc2OC)c1C [H6]    0.028
CCC[C@@H](CC)Oc1ccc(C(C)(C)C)cc1NC(=O)c1nnn(-c2cc(OC)ccc2OC)c1C [M2]    0.019
COc1ccc(OC)c(-n2nnc(C(=O)Nc3cc(NC(=O)CCC(=O)O)cc(C(C)(C)C)c3)c2C)c1 [D6]    1.26
CCC(C)Oc1ccc(C(C)(C)C)cc1NC(=O)c1nnn(-c2cc(Cl)ccc2OC)c1C (centres unmarked) [F10]    0.0076

a = CCCC(CC)Oc1ccc(C(C)(C)C)cc1NC(=O)c1nnn(-c2cc(C)ccc2OC)c1C (centres unmarked) [G10]
b = CCC[C@H](CC)Oc1ccc(C(=O)O)cc1NC(=O)c1nnn(-c2cc(OC)ccc2OC)c1C [M5]
c = CCCCOc1ccc(C(C)(C)C)cc1NC(=O)c1nnn(-c2c(OC)cccc2OC)c1C [H20]
d = COc1ccc(OC)c(-n2nnc(C(=O)Nc3cc(OCC(=O)OC(C)(C)C)cc(C(C)(C)C)c3)c2C)c1 [D31]
Asked: Which order do these items take when sorted by rising IC50? List them. Response field: labels, in requested order.
Given back: a, c, d, b

All values here come from patent US20250282736A1.
